Quick reference for Kd among some binders
# Assayed System: T1, cSNK:BSA conjugate (bovine, head-to-tail cyclized; conjugated to BSA carrier)
# T1 construct: also called BSA-cSNK
# T1 sequence (P02769 25-607 limits assumed): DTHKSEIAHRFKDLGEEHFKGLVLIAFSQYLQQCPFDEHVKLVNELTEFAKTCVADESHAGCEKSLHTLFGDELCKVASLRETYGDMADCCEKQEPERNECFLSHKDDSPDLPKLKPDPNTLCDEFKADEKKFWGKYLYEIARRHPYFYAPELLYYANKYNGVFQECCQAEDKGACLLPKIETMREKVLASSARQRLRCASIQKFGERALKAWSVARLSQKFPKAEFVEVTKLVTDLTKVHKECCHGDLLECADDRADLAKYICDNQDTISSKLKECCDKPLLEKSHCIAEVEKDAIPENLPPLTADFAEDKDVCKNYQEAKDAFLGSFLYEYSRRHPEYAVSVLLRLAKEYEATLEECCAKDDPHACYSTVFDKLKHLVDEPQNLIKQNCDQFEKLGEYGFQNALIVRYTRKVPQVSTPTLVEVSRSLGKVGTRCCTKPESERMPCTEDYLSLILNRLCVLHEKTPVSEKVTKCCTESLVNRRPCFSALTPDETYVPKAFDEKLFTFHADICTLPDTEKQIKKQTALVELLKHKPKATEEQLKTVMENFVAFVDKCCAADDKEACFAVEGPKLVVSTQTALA
# Protocol Details: BLI 2:1 fit, site 1; 25 nM row
Please state the figure in pM; there is no need to write the unit.

hu5E3-IgG1 (antibody, V domains shown, human IgG1/kappa; also called humanized 5E3 IgG1; IHA variant) VH: QVQLQQSGPEVKKPGASVKISCKASGYIFTSYYIQWVIHAPGQGLEWIGWIYPGNVNTKYNEKFKGKATLTADKSSSTAYMELSSLTSEDTAVYFCARMDYEAHYWGQGTTVTVSS VL: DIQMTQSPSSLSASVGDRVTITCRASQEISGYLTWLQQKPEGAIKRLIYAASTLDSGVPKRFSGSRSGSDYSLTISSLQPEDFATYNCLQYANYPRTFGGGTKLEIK : 463

// returns reported Kd for input hu5E3-IgG4 (antibody, V domains shown, human IgG4/kappa; also called humanized 5E3 IgG4) VH: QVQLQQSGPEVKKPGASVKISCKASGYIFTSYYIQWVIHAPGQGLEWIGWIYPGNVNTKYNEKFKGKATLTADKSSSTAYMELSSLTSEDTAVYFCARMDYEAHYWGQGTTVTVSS VL: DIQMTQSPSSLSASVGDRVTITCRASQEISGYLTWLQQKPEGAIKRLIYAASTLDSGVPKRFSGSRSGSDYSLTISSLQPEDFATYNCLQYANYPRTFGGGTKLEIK
633

// returns reported Kd for input hu5E3-IgG2 (antibody, V domains shown, human IgG2/kappa; also called humanized 5E3 IgG2) VH: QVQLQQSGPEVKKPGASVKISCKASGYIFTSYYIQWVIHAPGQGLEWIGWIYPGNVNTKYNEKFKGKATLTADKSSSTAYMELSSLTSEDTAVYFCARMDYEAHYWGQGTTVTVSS VL: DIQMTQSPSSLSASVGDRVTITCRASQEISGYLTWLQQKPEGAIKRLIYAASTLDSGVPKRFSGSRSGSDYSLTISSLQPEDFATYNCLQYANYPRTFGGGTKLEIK
1180

// returns reported Kd for input murine monoclonal antibody 5E3 (antibody, V domains shown, mouse antibody of the 5E3 hybridoma; also called murine 5E3; m5E3) VH: QVQLQQSGPELVKPGASVRISCKASGYIFTSYYIQWVIHRPGQGLEWIGWIYPGNVNTKYNEKFKGKATLTADKSSSTAYMQLSRLTSEDSAVYFCARMDYEAHYWGQGTTLTVSS VL: DIQMTQSPSSLSASLGERVSLTCRASQEISGYLTWLQQKPDGTIKRLIYAASTLDSGVPKRFSGSRSGSDYSLTISSLESEDFADYNCLQYANYPRTFGGGTKLEIK
330
